Listed below: IC50 values for each entry.
Target: SRPK1 (Homo sapiens)
Sequence (Q96SB4 whole entry): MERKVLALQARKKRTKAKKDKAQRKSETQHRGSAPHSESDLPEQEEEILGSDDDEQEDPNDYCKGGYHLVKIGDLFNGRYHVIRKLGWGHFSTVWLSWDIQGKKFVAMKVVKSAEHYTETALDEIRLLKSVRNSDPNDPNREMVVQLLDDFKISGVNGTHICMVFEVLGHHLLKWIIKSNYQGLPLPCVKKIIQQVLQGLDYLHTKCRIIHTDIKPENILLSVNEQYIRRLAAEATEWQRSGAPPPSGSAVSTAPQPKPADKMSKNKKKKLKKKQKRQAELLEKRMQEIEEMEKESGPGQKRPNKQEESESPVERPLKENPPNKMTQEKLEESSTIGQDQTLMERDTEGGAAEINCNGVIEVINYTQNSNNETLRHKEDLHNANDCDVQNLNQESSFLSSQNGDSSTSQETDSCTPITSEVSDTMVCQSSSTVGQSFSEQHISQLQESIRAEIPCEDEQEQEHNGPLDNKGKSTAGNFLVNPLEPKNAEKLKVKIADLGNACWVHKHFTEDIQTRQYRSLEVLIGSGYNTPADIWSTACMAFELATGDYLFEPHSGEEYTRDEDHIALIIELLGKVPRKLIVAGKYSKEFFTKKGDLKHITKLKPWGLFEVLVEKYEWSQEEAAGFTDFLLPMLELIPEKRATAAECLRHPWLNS
Experiment: SRPK1 assay, Method 1 (ADP-Glo luminescence)
Assay type: biochemical
Details: Method 1 (no asterisk): substrate Human SRSF1/SF2, 25° C. for 90 min, test compounds 30 μM top, 3-fold, duplicate

Example entries and their recorded answers appear below.
O=C(Nc1cc(C(F)(F)F)cnc1N1CC(O)C1)c1ccc(C2CCOCC2)o1 :: > 30 µM
O=C(Nc1cc(C(F)(F)F)cnc1C1CCNCC1)c1ccc(C2CCOCC2)o1 :: > 30 µM

The value of IC50 measured for the molecule CN1CCC(c2ccc(C(=O)Nc3cc(C(F)(F)F)cnc3N3CCC(O)CC3)o2)CC1 turned out to be > 30 µM

* * *

Listed here are molecules together with their documented pIC50.
Molecular target: SRPK1 (Homo sapiens)
Assay: SRPK1 assay, Method 1 (ADP-Glo luminescence)
Type: biochemical
Details: Method 1 (no asterisk): substrate Human SRSF1/SF2, 25° C. for 90 min, test compounds 30 μM top, 3-fold, duplicate
pIC50: −log10 of the molar value.

Consider the worked cases shown below.
C[C@@H]1C[C@@H](O)CCN1c1ncc(C2CC2)cc1NC(=O)c1ccc(-c2cc(N)nc(N)c2)o1 :: < 4.52
O=C(Nc1cc(C(F)(F)F)cnc1N1CCOCC1)c1ccc(C2CCOCC2)o1 :: < 4.52
O=C(Nc1cc(C(F)(F)F)cnc1-c1ccncc1)c1ccc(C2CCOCC2)o1 :: 5.08
O=C(Nc1cc(C(F)(F)F)cnc1N1CCc2[nH]ncc2C1)c1ccc(Br)o1 :: < 4.52

Now turn to the next molecule.
Recorded result, Nc1cc(-c2ccc(C(=O)Nc3cc(C(F)(F)F)cnc3N3CCc4[nH]ncc4C3)o2)ccn1 , pIC50: < 4.52
